# System: HPAF-II cells
# Protocol: HPAF-II Cell Proliferation Assay
# Assay type: cell-based
# Run conditions: Homo sapiens, HPAF-II, HPAF-II cells; Table 2; read-out: Inhibition of cell proliferation in HPAF-II (IC50 class)
compounds and their reported IC50

# Compound, IC50
rows = [
    ("CC(=O)Nc1cc(-c2cncc(-c3cc(NC(=O)c4ccc(C(F)F)nc4)ccc3C)n2)ccn1", "500 to 1000 nM"),
]

Input O=C(Nc1ccc(F)c(-c2ccnc(-c3ccnc(NC(=O)C4CC4)c3)c2)c1)c1cc(C(F)(F)F)cnn1 . Output IC50: 1000 to 10000 nM

Input Cc1ccc(NC(=O)c2cc(C(C)C)cnn2)cc1-c1cncc(-c2cc(NC(=O)C3CC3)ncn2)c1 . Output IC50: 100 to 500 nM

Input Cc1ccc(NC(=O)c2cc(C(F)(F)F)cnn2)cc1-c1ccnc(-c2cscn2)c1 . Output IC50: 100 to 500 nM

Input CC(=O)Nc1cc(-c2cc(-c3cc(NC(=O)c4ccc(C(F)(F)F)nn4)ccc3C)ccn2)ccn1 . Output IC50: < 100 nM
